From: patent US8802686B2

Test: Permeability assay (Assay 6), Caco-2 monolayer
Type: in vitro ADME
Conditions: human; Caco-2, 90 min, 37° C.; read-out: Permeation coefficient, Papp apical-basolateral (a-b)
readoutName: Papp A→B at 90 min (×10⁻⁶ cm/s)
The reply should be a number in ×10⁻⁶ cm/s, with the unit left off.

Q) Request the reported Papp A→B at 90 min associated with C[C@@H](O)[C@@H](C)Oc1nc(Nc2ccc(S(=O)(=O)C3CC3)cc2)ncc1C(F)(F)F [Example 1]
A) 16.5

Q) Name the reported Papp A→B at 90 min value associated with the compound C[C@@H](O)[C@@H](C)Nc1nc(Nc2ccc(S(C)(=O)=O)cc2)ncc1C(F)(F)F [C2, reference compound]
A) 18

Q) If you can, please state the reported Papp A→B at 90 min value of C[C@@H](O)[C@@H](C)Oc1nc(Nc2ccc(S(C)(=O)=O)cc2)ncc1C(F)(F)F [Example 2] .
A) 19.6

Q) Fill blank: measured Papp A→B at 90 min of the compound C[C@@H](O)[C@@H](C)Nc1nc(Nc2ccc(S(=O)(=O)C3CC3)cc2)ncc1C(F)(F)F [C1, reference compound] is ____.
A) 20.7

----------
Tested on: B16F10, murine melanoma cell
Experiment: Proliferation assay (Assay 5), B16F10
Type: cell-based
Conditions: Mus musculus, B16-F10, 96 h; B16F10, 4 days; read-out: Concentration of the half-maximal inhibition of the cell proliferation, IC50
So basically: is IC50 under 90 nM? Then 1. Not under? Then 0.

Q) Confirm or reject: IC50 of C[C@@H](O)[C@@H](C)Nc1nc(Nc2ccc(S(=O)(=O)C3CC3)cc2)ncc1C(F)(F)F [C1, reference compound] lies strictly below 90 nM
A) 1

Q) Say whether its IC50 is strictly beneath 90 nM. Entry: C[C@@H](O)[C@@H](C)Oc1nc(Nc2ccc(S(=O)(=O)C3CC3)cc2)ncc1C(F)(F)F [Example 1]
A) 1

Q) Is the reported IC50 for C[C@@H](Oc1nc(Nc2ccc(S(=O)(=O)C3CC3)cc2)ncc1C(F)(F)F)C(C)(C)O [Example 4] strictly below 90 nM?
A) 0

Q) Dear colleague, could you confirm whether IC50 of C[C@@H](Nc1nc(Nc2ccc(S(C)(=O)=O)cc2)ncc1C(F)(F)F)C(C)(C)O [C3, reference compound] falls below 90 nM? Thanks.
A) 0

Q) Consider the compound C[C@@H](Oc1nc(Nc2ccc(S(C)(=O)=O)cc2)ncc1C(F)(F)F)C(C)(C)O [Example 3] . Is its IC50 strictly less than 90 nM?
A) 0

----------
Biological target: CDK1/CycB (Homo sapiens (Human), UniProt P06493)
Sequence (P06493 whole entry): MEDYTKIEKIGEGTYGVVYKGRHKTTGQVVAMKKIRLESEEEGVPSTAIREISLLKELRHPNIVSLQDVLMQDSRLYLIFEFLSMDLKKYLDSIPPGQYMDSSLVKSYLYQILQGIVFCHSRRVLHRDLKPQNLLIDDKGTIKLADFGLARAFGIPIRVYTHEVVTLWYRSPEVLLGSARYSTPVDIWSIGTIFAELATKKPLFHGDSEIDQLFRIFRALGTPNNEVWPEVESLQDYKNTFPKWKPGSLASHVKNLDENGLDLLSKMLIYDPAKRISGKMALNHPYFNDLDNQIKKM
Sequence (P14635 whole entry partner): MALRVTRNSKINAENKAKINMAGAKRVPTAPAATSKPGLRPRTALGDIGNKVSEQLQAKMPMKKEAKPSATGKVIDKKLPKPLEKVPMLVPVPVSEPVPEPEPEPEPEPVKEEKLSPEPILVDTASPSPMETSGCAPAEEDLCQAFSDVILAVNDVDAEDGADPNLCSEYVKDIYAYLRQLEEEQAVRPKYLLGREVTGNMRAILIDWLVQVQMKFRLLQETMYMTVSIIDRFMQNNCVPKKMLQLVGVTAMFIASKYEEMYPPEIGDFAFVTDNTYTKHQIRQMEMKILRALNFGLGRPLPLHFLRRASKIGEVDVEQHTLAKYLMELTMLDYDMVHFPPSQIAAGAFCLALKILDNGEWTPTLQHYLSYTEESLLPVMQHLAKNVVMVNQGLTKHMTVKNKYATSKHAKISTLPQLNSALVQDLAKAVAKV
Test: CDK1/CycB kinase assay (Assay 1)
Details: read-out: CDK1/CycB (Assay 1) Concentration of the half-maximal inhibition of the enzyme activity, IC50
Exercise: state measured IC50 for each of the compounds provided.
Value expressed in µM; do not type the unit.

Q) Which measured IC50 value corresponds to `C#CCS(=O)(=O)c1ccc(Nc2ncc(C(F)(F)F)c(O[C@H](C)C(C)(C)O)n2)cc1` ?
A) 0.082

Q) Which IC50 value belongs to C[C@@H](Nc1nc(Nc2ccc(S(C)(=O)=O)cc2)ncc1C(F)(F)F)C(C)(C)O [C3, reference compound] ?
A) 0.009

Q) Given the compound C[C@@H](O)[C@@H](C)Nc1nc(Nc2ccc(S(=O)(=O)C3CC3)cc2)ncc1C(F)(F)F [C1, reference compound] , what is its reported IC50?
A) 0.008

Q) Reported IC50, compound `COC[C@@H](C)Oc1nc(Nc2ccc(S(C)(=O)=O)cc2)ncc1C(F)(F)F` : ____
A) 0.051

Q) Dear colleague, I am looking for the recorded IC50 of the following compound: `C[C@@H](Oc1nc(Nc2ccc(S(=O)(=O)C3CC3)cc2)ncc1C(F)(F)F)C(C)(C)O`
A) 0.036

Q) Param item = `C[C@@H](Oc1nc(Nc2ccc(S(C)(=O)=O)cc2)ncc1C(F)(F)F)C(C)(C)O` ; retrieve measured IC50.
A) 0.032

Q) Consider the compound `C[C@@H](O)[C@@H](C)Oc1nc(Nc2ccc(S(=O)(=O)C3CC3)cc2)ncc1C(F)(F)F` and give its measured IC50.
A) 0.016

Q) Consider the compound `CC(C)S(=O)(=O)c1ccc(Nc2ncc(C(F)(F)F)c(O[C@H](C)[C@@H](C)O)n2)cc1` and give its measured IC50.
A) 0.012

Q) Can you look up the measured IC50 of C[C@@H](O)[C@@H](C)Nc1nc(Nc2ccc(S(C)(=O)=O)cc2)ncc1C(F)(F)F [C2, reference compound] for me?
A) 0.004

Q) Please give the measured IC50 for this compound: `C=CCOc1nc(Nc2ccc(S(C)(=O)=O)cc2)ncc1C(F)(F)F`
A) 0.28

Q) # lookup: IC50 of `CS(=O)(=O)c1ccc(Nc2ncc(C(F)(F)F)c(OCCC(F)(F)F)n2)cc1`
A) 0.74

Q) Record request: IC50 value, item `C#CCOc1nc(Nc2ccc(S(C)(=O)=O)cc2)ncc1C(F)(F)F`
A) 0.13

Q) Record request: IC50 value, item `C[C@@H](O)[C@@H](C)Oc1nc(Nc2ccc(S(=O)(=O)C(F)F)cc2)ncc1C(F)(F)F`
A) 0.024

Q) # lookup: IC50 of `C[C@@H](O)[C@@H](C)Oc1nc(Nc2ccc(S(=O)(=O)c3ccccc3)cc2)ncc1C(F)(F)F`
A) 0.041

Q) Value lookup for IC50; key = `C[C@@H](O)[C@@H](C)Oc1nc(Nc2ccc(S(=O)(=O)C3CCCC3)cc2)ncc1C(F)(F)F`
A) 0.023

Q) Tell me the measured IC50 of `C[C@@H](O)[C@@H](C)Oc1nc(Nc2ccc(S(=O)(=O)CCO)cc2)ncc1C(F)(F)F` , please.
A) 0.003

Q) Entry `C=CCS(=O)(=O)c1ccc(Nc2ncc(C(F)(F)F)c(O[C@H](C)C(C)(C)O)n2)cc1` : reported IC50 = ?
A) 0.043
